- Test system: Eimeria maxima
- Measurement notes: Cage experiment on coccidiosis/chicks, E. maxima readout; further: key: 2=full action; 1=slight action; 0=inactive; D=death
- Assay type: in vivo
- Setup conditions: Table 4, dose 2.5 ppm; second symbol of cell
Provide the reported Efficacy against Eimeria maxima of each item.

Lab note: each compound below needs its Efficacy against Eimeria maxima filled in.
1. COC(=O)N(C)Cn1c(C(F)(F)F)nc2c(Br)cc3c(c21)OC(F)(F)C(F)(F)O3
2. CCOC(=O)N(Cn1c(C(F)(F)F)nc2c(Cl)cc3c(c21)OC(F)(F)C(F)(F)O3)C1CCCCC1
3. CCOC(=O)N(Cn1c(C(F)(F)F)nc2c(Br)cc3c(c21)OC(F)(F)C(F)(F)O3)C(C)C
4. CCOC(=O)N(Cn1c(C(F)(F)F)nc2c(Cl)cc3c(c21)OC(F)(F)C(F)(F)O3)C(C)C
5. CCN(Cn1c(C(F)(F)F)nc2c(Br)cc3c(c21)OC(F)(F)C(F)(F)O3)C(=O)OC
6. CCN(Cn1c(C(F)(F)F)nc2c(Cl)cc3c(c21)OC(F)(F)C(F)(F)O3)C(=O)OC
7. CCCCN(Cn1c(C(F)(F)F)nc2c(Br)cc3c(c21)OC(F)(F)C(F)(F)O3)C(=O)OCC
8. COC(=O)N(Cn1c(C(F)(F)F)nc2c(Cl)cc3c(c21)OC(F)(F)C(F)(F)O3)c1ccccc1C

1: 2; 2: 1; 3: 1; 4: 1; 5: 1; 6: 2; 7: 2; 8: 0

State the recorded Efficacy against Eimeria maxima for this entry: `COC(=O)N(C)Cn1c(C(F)(F)F)nc2c(Cl)cc3c(c21)OC(F)(F)C(F)(F)O3`
2
